experimentalProtocol: Inhibition of human CES2A using fluorescein diacetate as substrate preincubated for 3 mins followed by substrate addition measured after 30 mins by fluorescence based assay
Below is a list of entries, each paired with its recorded IC50 value.
The reply should be a number in nM, with the unit left off.

Answered cases to consult:
[[record]]
structurestring = "CCN(C)C(=O)Oc1ccc(/C=C/C(=O)N2CCC(c3ccccc3)CC2)cc1OC"
quantitativeresult = 3.18

[[record]]
structurestring = "CCN(C)C(=O)Oc1ccc(CCC(=O)N2CCC(c3ccccc3)CC2)cc1OC"
quantitativeresult = 4.85

[[record]]
structurestring = "COc1cc(CCC(=O)N2CCC(Cc3ccccc3)CC2)ccc1OC(=O)N(C)C"
quantitativeresult = 4.1

[[record]]
structurestring = "CCN(C)C(=O)Oc1ccc(C(=O)N2CCC(Cc3ccccc3)CC2)cc1OC"
quantitativeresult = 0.69

[[record]]
structurestring = "CCN(CC)C(=O)COc1ccc(C(C)=O)cc1OC"
quantitativeresult = 460

[[record]]
structurestring = "CCOc1cc(C(=O)N2CCC(Cc3ccccc3)CC2)ccc1OC(=O)N(C)CC"
quantitativeresult = 1.13


Consider the record given below.
Recorded IC50 (molecule "CCN(C)C(=O)Oc1ccc(C(=O)N2CCC(Cc3ccc(F)cc3)CC2)cc1OC" ): 1.31

---

experimentalProtocol: Aqueous solubility of compound by UPLC-MS/MS analysis
Format: physicochemical
runConditions: buffer
readoutLabel: solubility (µg/mL)
The reply should be a number in µg/mL, with the unit left off.

Recorded solubility (molecule "CCN(C)C(=O)Oc1ccc(C(=O)N2CCC(Cc3ccccc3)CC2)cc1OC" ): 32

---

experimentalProtocol: Inhibition of human CES2A incubated for 33 mins
readoutLabel: IC50

Recorded IC50 (compound "CCN(C)C(=O)Oc1ccc(C(=O)N2CCC(Cc3ccccc3)CC2)cc1OC" ): 0.04 nM

---

experimentalProtocol: Apparent permeability across apical to basal side in human Caco-2 cells at 50 uM incubated for 120 mins by UPLC-MS/MS analysis
Format: ADME, cell-based
readoutLabel: Papp A→B at 2 h, 50 µM
Answer format reminder: number followed by unit.

Recorded Papp A→B at 2 h, 50 µM (compound "CCN(C)C(=O)Oc1ccc(C(=O)N2CCC(Cc3ccccc3)CC2)cc1OC" ): 15.6 ×10⁻⁶ cm/s

---

experimentalProtocol: Inhibition of human CES2A using fluorescein diacetate as substrate preincubated for 3 mins followed by substrate addition measured after 30 mins by fluorescence based assay
pIC50: −log10 of the molar value.
Threshold check on pIC50: at or above 8 gives rule met, strictly below gives rule not met.

Past entries and their recorded results:
[[record]]
molecule = "CCN(C)C(=O)Oc1ccc(CCC(=O)N2CCN(Cc3ccccc3)CC2)cc1OC"
classification = "rule not met"

[[record]]
molecule = "CCN(C)C(=O)Oc1ccc(CCC(=O)N2CCC(Cc3ccccc3)CC2)cc1OC"
classification = "rule met"

[[record]]
molecule = "CCN(C)C(=O)Oc1ccc(C(=O)N2CCc3ccccc3C2)cc1OC"
classification = "rule met"

[[record]]
molecule = "CCN(C)C(=O)Oc1ccc(C(=O)N2CCC(c3ccccc3)CC2)cc1OC"
classification = "rule met"

[[record]]
molecule = "CCN(C)C(=O)Oc1ccc(C(=O)N2CCC(CCCc3ccccc3)CC2)cc1OC"
classification = "rule met"

[[record]]
molecule = "CNC(=O)COc1ccc(C(C)=O)cc1OC"
classification = "rule not met"

[[record]]
molecule = "CN(C)C(=O)C(CCN1CCC(O)(c2ccc(Cl)cc2)CC1)(c1ccccc1)c1ccccc1 [LOPERAMIDE]"
classification = "rule not met"

[[record]]
molecule = "CCN(C)C(=O)Oc1ccc(C(=O)N2CCC(Cc3ccccc3)CC2)cc1OCC1CC1"
classification = "rule met"


Lab note: next molecule to report on.
Confirm if pIC50 reported for the molecule "CCN(C)C(=O)Oc1ccc(/C=C/C(=O)N2CCC(Cc3ccccc3)CC2)cc1" is 8 or above.
rule met
